# ASSAY EXPLANATION: DSSTox (CPDBAS) Carcinogenic Potency Database Summary SingleCellCall Results
# RUN CONDITIONS: animal chronic carcinogenicity bioassays, CPDB summary call
Calls of active or inactive are those of the source.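 Rule for the calls: active = a tumor-causing dose value with its tumor site reported for any sex and species group of a rodent or other animal cancer study; inconclusive = only studies judged inadequate by the national testing program; inactive = tested in at least one study, none positive.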
PROPERTY LABEL: outcome

Consider the following illustrative entries.
COC(=O)[C@H]1[C@H]2C[C@@H]3c4[nH]c5ccccc5c4CCN3C[C@H]2C[C@@H](OC(=O)c2cc(OC)c(OC)c(OC)c2)[C@@H]1OC ... inactive
O=[N+]([O-])c1ccc2ncccc2c1 ... inactive; active
Cc1cc(=O)n(-c2ccccc2)n1C ... active; inactive
C[C@@H]1CC2(O[C@@H]2C)C(=O)O[C@@H]2CCN(C)C/C=C(/COC(=O)[C@]1(C)O)C2=O (stereo not given in full) ... active; inactive

I'm hoping you can list outcome for every compound here, please.
1. ClC1(Cl)C2(Cl)C3C4(Cl)C1(Cl)C1(Cl)C4(Cl)C(Cl)(Cl)C3(Cl)C21Cl (stereo not given)
2. CC1=C2C(=CO[C@@H](C)[C@@H]2C)C(=O)C(C(=O)O)=C1O
3. OCc1ccco1
4. CCC1(CCC(C)C)C(=O)NC(=O)NC1=O
5. CCCl

OUT:
["active; inactive", "active", "active", "inactive", "active; inactive"]

Data origin: PubChem BioAssay AID1189
